system: CDK4/cyclin D3 (Homo sapiens, UniProt P11802)
Construct: made in house; host or cells: insect cells (baculovirus co-infection)
Sequence (P11802 whole entry): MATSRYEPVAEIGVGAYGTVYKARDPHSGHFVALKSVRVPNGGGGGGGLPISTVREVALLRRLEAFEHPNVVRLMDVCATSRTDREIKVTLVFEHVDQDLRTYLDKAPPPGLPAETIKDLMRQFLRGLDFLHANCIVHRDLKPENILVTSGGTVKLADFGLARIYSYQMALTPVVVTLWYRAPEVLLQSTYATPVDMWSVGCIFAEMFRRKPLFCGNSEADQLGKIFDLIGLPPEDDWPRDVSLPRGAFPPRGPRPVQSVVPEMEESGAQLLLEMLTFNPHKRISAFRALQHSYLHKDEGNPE
Sequence (P30281 1-264 partner limits assumed): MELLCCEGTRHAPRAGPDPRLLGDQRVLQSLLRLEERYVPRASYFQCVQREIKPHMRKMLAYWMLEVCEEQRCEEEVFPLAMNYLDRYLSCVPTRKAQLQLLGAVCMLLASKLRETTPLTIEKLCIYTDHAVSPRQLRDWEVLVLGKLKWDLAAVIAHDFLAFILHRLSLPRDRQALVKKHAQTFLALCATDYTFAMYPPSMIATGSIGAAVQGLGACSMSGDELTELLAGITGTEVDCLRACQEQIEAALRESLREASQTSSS
protocol-summary: Inhibition of CDK4/Cyclin D retinoblastoma kinase activity
Type: biochemical
experimental-setup: test compound at 0.03 (unit cell empty, head line shifted; μM); read-out: % Inhib CDK4/D @ 0.03
Method: Cyclin-dependent kinase activity was measured by quantifying the enzyme-catalyzed, time-dependent incorporation of radioactive phosphate from [^32P]ATP or [^33P]ATP into a protein substrate. […] The phosphorylated substrate was then captured on a nitrocellulose or phosphocellulose membrane using a 96-well filtration manifold, and unincorporated radioactivity was removed by repeated washing with 0.85% phosphoric acid. Radioactivity was quantified by exposing the dried membranes to a phosphorimager. […]
attribute-measured: inhibition at 0.03 µM (%)

Nc1nc(Nc2ccc(S(=O)(=O)Cc3ccncc3)cc2)sc1C(=O)c1c(Cl)cccc1Cl :: 7.7
CC(CN(C)C)CS(=O)(=O)c1ccc(Nc2nc(N)c(C(=O)c3c(Cl)cccc3Cl)s2)cc1 (stereo not drawn) :: -5.8
COC(=O)/C=C/C[S+]([O-])c1ccc(Nc2nc(N)c(C(=O)c3c(Cl)cccc3Cl)s2)cc1 (stereo not drawn) :: -5.6
Nc1nc(Nc2cccc(SCc3ncon3)c2)sc1C(=O)c1c(Cl)cccc1Cl :: 26
COC(=O)C[S+]([O-])c1ccc(Nc2nc(N)c(C(=O)c3c(Cl)cccc3Cl)s2)cc1 (stereo not drawn) :: 1.7
CN(c1ccc(S(=O)(=O)CC(O)CO)cc1)c1nc(N)c(C(=O)c2c(Cl)cccc2Cl)s1 (stereo not drawn) :: 9.6
CCOC(=O)CCSc1ccc(Nc2nc(N)c(C(=O)c3c(Cl)cccc3Cl)s2)cc1 :: 8.1
Nc1nc(Nc2cccc(SCC(O)CO)c2)sc1C(=O)c1c(Cl)cccc1Cl (stereo not drawn) :: 28
CC(C)=CC[S+]([O-])c1cccc(Nc2nc(N)c(C(=O)c3c(Cl)cccc3Cl)s2)c1 (stereo not drawn) :: -66
CN(C)CCC[S+]([O-])c1ccc(Nc2nc(N)c(C(=O)c3c(Cl)cccc3Cl)s2)cc1 (stereo not drawn) :: -4.9
NC(=O)CC[S+]([O-])c1cccc(Nc2nc(N)c(C(=O)c3c(Cl)cccc3Cl)s2)c1 (stereo not drawn) :: 35
CC1(C[S+]([O-])c2cccc(Nc3nc(N)c(C(=O)c4c(Cl)cccc4Cl)s3)c2)CO1 (stereo not drawn) :: 25
COC(=O)CSc1cccc(Nc2nc(N)c(C(=O)c3c(Cl)cccc3Cl)s2)c1 :: 18
CC(C)CCCSc1cccc(Nc2nc(N)c(C(=O)c3c(Cl)cccc3Cl)s2)c1 :: 93
CC(C)(CO)CSc1ccc(Nc2nc(N)c(C(=O)c3c(Cl)cccc3Cl)s2)cc1 :: -1.2
CCOC(=O)CC[S+]([O-])c1cccc(Nc2nc(N)c(C(=O)c3c(Cl)cccc3Cl)s2)c1 (stereo not drawn) :: -2.6
Nc1nc(Nc2cccc([S+]([O-])CCN3CCCCC3)c2)sc1C(=O)c1c(Cl)cccc1Cl (stereo not drawn) :: 13
Nc1nc(Nc2cccc([S+]([O-])Cc3ncon3)c2)sc1C(=O)c1c(Cl)cccc1Cl (stereo not drawn) :: 12
COc1cccc(CSc2cccc(Nc3nc(N)c(C(=O)c4c(Cl)cccc4Cl)s3)c2)c1 :: -14
CC(C)OC(=O)CCS(=O)(=O)c1ccc(N(C)c2nc(N)c(C(=O)c3c(Cl)cccc3Cl)s2)cc1 :: -19
CC(C)(CO)C[S+]([O-])c1ccc(Nc2nc(N)c(C(=O)c3c(Cl)cccc3Cl)s2)cc1 (stereo not drawn) :: -34
CCC(CC)C[S+]([O-])c1ccc(Nc2nc(N)c(C(=O)c3c(Cl)cccc3Cl)s2)cc1 (stereo not drawn) :: -2.9
Nc1nc(Nc2ccc(SCC3CNC(=O)O3)cc2)sc1C(=O)c1c(Cl)cccc1Cl (stereo not drawn) :: -28
CC(CN(C)C)C[S+]([O-])c1cccc(Nc2nc(N)c(C(=O)c3c(Cl)cccc3Cl)s2)c1 (stereo not drawn) :: 8
Nc1nc(Nc2ccc(SCC3CCCO3)cc2)sc1C(=O)c1c(Cl)cccc1Cl (stereo not drawn) :: 10
COC(=O)/C=C/CSc1ccc(Nc2nc(N)c(C(=O)c3c(Cl)cccc3Cl)s2)cc1 :: 5.4
Nc1nc(Nc2ccc([S+]([O-])CC(=O)Nc3ccccc3)cc2)sc1C(=O)c1c(Cl)cccc1Cl (stereo not drawn) :: 5.3
CCN(CC)C(=O)CSc1ccc(Nc2nc(N)c(C(=O)c3c(Cl)cccc3Cl)s2)cc1 :: -34
CCN(CC)C(=O)CSc1cccc(Nc2nc(N)c(C(=O)c3c(Cl)cccc3Cl)s2)c1 :: 28
CN1CCCC1CCSc1ccc(Nc2nc(N)c(C(=O)c3c(Cl)cccc3Cl)s2)cc1 (stereo not drawn) :: -3
CN(C)CCCS(=O)(=O)c1ccc(N(C)c2nc(N)c(C(=O)c3c(Cl)cccc3Cl)s2)cc1 :: -22
CCC[S+]([O-])c1ccc(Nc2nc(N)c(C(=O)c3c(Cl)cccc3Cl)s2)cc1 (stereo not drawn) :: 0.9
Nc1nc(Nc2cccc([S+]([O-])Cc3ccncc3)c2)sc1C(=O)c1c(Cl)cccc1Cl (stereo not drawn) :: 25
